Cited source: PubChem BioAssay

system: Hepatitis C virus NS3 helicase; assay: HCV NS3 helicase inhibitors, primary screen, biochemical, fluorescence polarization, LOPAC1280 library (AID 687035); conditions: Purified HCV NS3 helicase, Cy5-dT15 ssDNA binding fluorescence polarization; active compounds read high; concentration not given here
inhibition values for the compounds below.

| compound | inhibition, % |
| --- | --- |
| COc1ccc2c(c[n+](C)c3c4cc5c(cc4ccc23)OCO5)c1OC | -3 |
| CC(C)(C)NCC(O)c1ccccc1Cl (stereo not drawn) | -4 |
| CNCCc1c[nH]c2ccc(O)cc12 | -6 |

----------
tested on: Aerobactin synthetase IucA (Klebsiella pneumoniae); test: IucA aerobactin synthetase inhibitors, biochemical, Tocris library, absorbance (AID 1345561); conditions: purified IucA enzyme assay, absorbance (OD) read-out; active compounds read low;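 tested at 8 µM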;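 also: 100% = enzyme without compound and 0% = no enzyme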
remaining activity values for the molecules below.

| molecule | quantity unit | remaining activity |
| --- | --- | --- |
| CN1c2ccccc2C(NCCCCCCC(=O)O)c2ccc(Cl)cc2S1(=O)=O (configuration not stated) | % | 117 |
| CC(C(=O)OC1CC2CCC(C1)N2C)c1ccc(Br)cc1 (configuration not stated) | % | 87.5 |
| COc1ccc(C(=O)N2CCCC2=O)cc1 | % | 97.7 |
| CN[C@@H]1C[C@@H](c2ccc(Cl)c(Cl)c2)c2ccccc21 | % | 118 |
| NCCc1ccccn1 | % | 108 |
| CCCN1CCO[C@@H]2c3cc(O)ccc3OC[C@H]21 | % | 109 |
| C=C(C)[C@H]1CN[C@H](C(=O)O)[C@H]1CC(=O)O | % | 116 |
